Ref: patent US20240270821A1

Molecular target: hGLP-1R (Homo sapiens, UniProt P43220)
Sequence (P43220 24-463): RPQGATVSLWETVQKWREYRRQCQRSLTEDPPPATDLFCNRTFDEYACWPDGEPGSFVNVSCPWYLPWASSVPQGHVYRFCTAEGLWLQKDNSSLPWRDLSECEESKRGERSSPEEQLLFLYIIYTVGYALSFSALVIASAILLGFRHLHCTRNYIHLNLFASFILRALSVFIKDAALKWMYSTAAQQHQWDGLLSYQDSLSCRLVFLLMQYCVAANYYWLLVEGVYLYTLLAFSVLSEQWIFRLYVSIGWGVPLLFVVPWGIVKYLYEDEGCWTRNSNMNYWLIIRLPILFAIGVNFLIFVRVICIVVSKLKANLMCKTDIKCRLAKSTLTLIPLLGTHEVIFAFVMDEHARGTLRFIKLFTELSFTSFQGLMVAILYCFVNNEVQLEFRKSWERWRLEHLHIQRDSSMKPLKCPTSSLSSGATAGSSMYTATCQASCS
Test: cell-based or functional assay
Starred links: 1 amine or outer side, 2 acyl side, 3 side chain; linkers in the order of their positions; H or OH if unused. Non-standard residues stand in square brackets, D forms with d. Groups on a side chain read outwards from the residue. No end group written: not given here. *: point of attachment. C20 diacid = O=C(O)CCCCCCCCCCCCCCCCCCC(=O)*; Phe(4-CN) = N#Cc1ccc(C[C@H](N)C(=O)O)cc1; αMePhe(2-F) = C[C@](N)(Cc1ccccc1F)C(=O)O; γGlu = O=C(O)[C@H](CCC(=O)[*:2])N[*:1]; αMeL = CC(C)C[C@](C)(N)C(=O)O; AEEA = NCCOCCOCC(=O)O; Aib = CC(C)(N)C(=O)O
ASSAY READOUT: cAMP Rel EC50 (1% HSA) (nM)
Please state the figure in nM; there is no need to write the unit.

Can you look up the measured cAMP Rel EC50 (1% HSA) of YXQGTFTSDXSQXLDXKAQXAFIEXLIAXGPSSGEPPPSGSEE (not fully specified; non-natural residues; Lys acylated γGlu-C18 diacid; C-terminal amide; synthetic construct; SITE 2: note = 2-Aminoisobutyric Acid; SITE 10: note = 3-(4-Pyridyl)-L-alanine; SITE 13: note = alpha-methyl-leucine; SITE 16: note = L-ornithine; SITE 17: note = Lysine is chemically modified through conjugation of the epsilon-amino group of the Lysine side chain with D-Glutami) [Example 1105] for me?
92.5

If you can, please state the reported cAMP Rel EC50 (1% HSA) value of YXQGTXTSDXSIXLDXKAAXAFIEXLLEGGPSSGEPPPS (synthetic construct; SITE 2: note = 2-Aminoisobutyric Acid; SITE 6: note = alpha-methyl-2-fluoro-L-phenylalanine; SITE 10: note = 3-(4-Pyridyl)-L-alanine; SITE 13: note = alpha-methyl-leucine; SITE 16: note = L-ornithine; SITE 17: note = Lysine is chemically modified through conjugation of the epsil) [Example 1236] .
95.8

What value of cAMP Rel EC50 (1% HSA) has been reported for the following binder? Y[Aib]QGTFTSDYSI[αMeL]LDKQAAKQFVEWLIA[Aib]GPSSGEPPPGTG-NH2 (not fully specified (residue 20)) [Example 336]
227

For the binder YXQGTXTSDXXIXLDXKAAXEFIEXLIEGGPSSGEPPPSGS (synthetic construct; SITE 2: note = 2-Aminoisobutyric Acid; SITE 6: note = alpha-methyl-2-fluoro-L-phenylalanine; SITE 10: note = 3-(4-Pyridyl)-L-alanine; SITE 11: note = alpha-methyl-L-serine; SITE 13: note = alpha-methyl-leucine; SITE 16: note = L-ornithine; SITE 17: note = Lysine is chemically mo) [Example 707] , what cAMP Rel EC50 (1% HSA) is on record?
30.6

What value of cAMP Rel EC50 (1% HSA) has been recorded for this entry: YXQGTFTSDXSQXLDKKAQXAFIEYLIEXGPSSGAPPPSEE (non-natural residues; lipidated Lys; D-Glu; synthetic construct; SITE 2: note = 2-Aminoisobutyric Acid; SITE 10: note = 3-(4-Pyridyl)-L-alanine; SITE 13: note = alpha-methyl-leucine; SITE 17: note = Lysine is chemically modified through conjugation of the epsilon-amino group of the Lysine side chain with (2-[2-(2-Amino-ethoxy)-ethoxy]-acetyl)) [Example 919]
454

Please give the measured cAMP Rel EC50 (1% HSA) for this binder: YXQGTFTSDXSKXLDKKAQXAFIEYLIEXGPSSGAPPPSGSE (AEEA-γGlu-C18 diacid on Lys; non-natural residues; amide; synthetic construct; SITE 2: note = 2-Aminoisobutyric Acid; SITE 10: note = 3-(4-Pyridyl)-L-alanine; SITE 13: note = alpha-methyl-leucine; SITE 17: note = Lysine is chemically modified through conjugation of the epsilon-amino group of the Lysine side chain with (2-[2-(2-Amino-ethoxy)-ethoxy]-acetyl)) [Example 901]
193

Request the reported cAMP Rel EC50 (1% HSA) associated with YXQGTFTSDXSQXLDXKAQXQFIEXLLAGGPSSGAPPPSGSEEE (Lys acylated γGlu-C18 diacid; non-natural residues; C-terminal amide; synthetic construct; SITE 2: note = 2-Aminoisobutyric Acid; SITE 10: note = 3-(4-Pyridyl)-L-alanine; SITE 13: note = alpha-methyl-leucine; SITE 16: note = L-ornithine; SITE 17: note = Lysine is chemically modified through conjugation of the epsilon-amino group of the Lysine side chain with D-Glutami) [Example 1084]
761

Fill in the blank: the reported cAMP Rel EC50 (1% HSA) of YXQGTXTSDXSIXLDXXAQXXFIEXLIEGGPSSGEPPPETE (synthetic construct; SITE 2: note = 2-Aminoisobutyric Acid; SITE 6: note = alpha-methyl-2-fluoro-L-phenylalanine; SITE 10: note = 3-(4-Pyridyl)-L-alanine; SITE 13: note = alpha-methyl-leucine; SITE 16: note = L-ornithine; SITE 17: note = Ornithine is chemically modified through conjugation of the ep) [Example 1209] is ____.
37.7

Fill in: cAMP Rel EC50 (1% HSA) of YXQGTFTSDXSQXLDXKAQXAFIEYLIAXGPSSGAPPPSGSEE (non-natural residues; acylated Lys C18 diacid; C-term amide; synthetic construct; SITE 2: note = 2-Aminoisobutyric Acid; SITE 10: note = 3-(4-Pyridyl)-L-alanine; SITE 13: note = alpha-methyl-leucine; SITE 16: note = L-ornithine; SITE 17: note = Lysine is chemically modified through conjugation of the epsilon-amino group of the Lysine side chain with (gamma-Gl)) [Example 1091] is ___
145

Which value of cAMP Rel EC50 (1% HSA) has been reported for Y[Aib]QGT[αMePhe(2-F)]TSD[Phe(4-CN)]SILLDKQAQK([AEEA-AEEA-γGlu-C20 diacid])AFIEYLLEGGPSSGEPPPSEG-NH2 [Example 321] in the records?
110

Quick one: cAMP Rel EC50 (1% HSA) of YXQGTFTSDXSQXLDKKAQXQFIEXLIEGGPSSGAPPPSGS (non-natural residues, acylated Lys ((γGlu)2-C18 diacid), C-terminal amide; synthetic construct; SITE 2: note = 2-Aminoisobutyric Acid; SITE 10: note = 3-(4-Pyridyl)-L-alanine; SITE 13: note = alpha-methyl-leucine; SITE 17: note = Lysine is chemically modified through conjugation of the epsilon-amino group of the Lysine side chain with (gamma-Glu)2-CO-(CH2)16-CO2H; SITE 20:) [Example 934] ?
175

Would you mind telling me what cAMP Rel EC50 (1% HSA) value was observed for Y[Aib]QGTFTSDYSI[αMeL]LDKIAAK([AEEA-AEEA-γGlu-C20 diacid])QFVEWLLA[Aib]GPSSGEPPPSEG-NH2 [Example 324] ?
1060

I'd like to know its cAMP Rel EC50 (1% HSA). The binder in question is YXQGTFTSDXSQXLDXKAQXQFIEXLIEXGPSSGEPPPSGSEE (Aib, 4Pal, Orn, αMeL, Me4Pal, αMeY, acylated Lys, amide; synthetic construct; SITE 2: note = 2-Aminoisobutyric Acid; SITE 10: note = 3-(4-Pyridyl)-L-alanine; SITE 13: note = alpha-methyl-leucine; SITE 16: note = L-ornithine; SITE 17: note = Lysine is chemically modified through conjugation of the epsilon-amino group of the Lysine side chain with (2-[2-(2-) [Example 1098]
184

Value lookup for cAMP Rel EC50 (1% HSA); key = YXQGTXTSDXXIXLDXKAAXEFIEXLIEGGPSSGAPPPSGTGX (synthetic construct; SITE 2: note = 2-Aminoisobutyric Acid; SITE 6: note = alpha-methyl-2-fluoro-L-phenylalanine; SITE 10: note = 3-(4-Pyridyl)-L-alanine; SITE 11: note = alpha-methyl-L-serine; SITE 13: note = alpha-methyl-leucine; SITE 16: note = L-ornithine; SITE 17: note = Lysine is chemically mo) [Example 724]
26.4

I have this binder here, Y[Aib]QGT[αMePhe(2-F)]TSDFSILLDKQAQKAFIEYLLEGGPSSGEPPPSEG-NH2 (not fully specified (residue 20)) [Example 346] , and I need its recorded cAMP Rel EC50 (1% HSA).
514

Could you share which cAMP Rel EC50 (1% HSA) value was measured for YXQGTXTSDXSIXLDXKAQXXFIEXLIEGGPSSGEPPPEGT (synthetic construct; SITE 2: note = 2-Aminoisobutyric Acid; SITE 6: note = alpha-methyl-2-fluoro-L-phenylalanine; SITE 10: note = 3-(4-Pyridyl)-L-alanine; SITE 13: note = alpha-methyl-leucine; SITE 16: note = L-ornithine; SITE 17: note = Lysine is chemically modified through conjugation of the epsil) [Example 505] ?
39

Fill in the blank: the reported cAMP Rel EC50 (1% HSA) of YXQGTFTSDXSQXLDXKAQXAFIEYLIAXGPSSGEPPPSGSEE (non-natural residues; lipidated Lys; C-terminal amide; synthetic construct; SITE 2: note = 2-Aminoisobutyric Acid; SITE 10: note = 3-(4-Pyridyl)-L-alanine; SITE 13: note = alpha-methyl-leucine; SITE 16: note = L-ornithine; SITE 17: note = Lysine is chemically modified through conjugation of the epsilon-amino group of the Lysine side chain with D-Glutami) [Example 1101] is ____.
246

Entry YXQGTFTSDXSQXLDKKAQXAFIEYLLEAGPSSGAPPPSGT (synthetic construct; SITE 2: note = 2-Aminoisobutyric Acid; SITE 10: note = 3-(4-Pyridyl)-L-alanine; SITE 13: note = alpha-methyl-leucine; SITE 17: note = Lysine is chemically modified through conjugation of the epsilon-amino group of the Lysine side chain with (2-[2-(2-Amino-ethoxy)-ethoxy]-acetyl)) [Example 823] : reported cAMP Rel EC50 (1% HSA) = ?
421

Fill blank: measured cAMP Rel EC50 (1% HSA) of the binder Y[Aib]QGTFTSDYSK[αMeL]LDKKAQQAFVQWLIE[dA]GPSSGEPPPSEG-NH2 (not fully specified (residue 17)) [Example 342] is ____.
62

Which cAMP Rel EC50 (1% HSA) is reported for this binder? YXQGTXTSDXXIXLDXKAQXXFIEXLIEGGPSSGEPPPEGE (synthetic construct; SITE 2: note = 2-Aminoisobutyric Acid; SITE 6: note = alpha-methyl-2-fluoro-L-phenylalanine; SITE 10: note = 3-(4-Pyridyl)-L-alanine; SITE 11: note = alpha-methyl-L-serine; SITE 13: note = alpha-methyl-leucine; SITE 16: note = L-ornithine; SITE 17: note = Lysine is chemically mo) [Example 698]
20.6

Quick check: cAMP Rel EC50 (1% HSA) of YXQGTXTSDXXIXLDXKAAXEFIEXLIEGGPSSGAPPPSGTEX (synthetic construct; SITE 2: note = 2-Aminoisobutyric Acid; SITE 6: note = alpha-methyl-2-fluoro-L-phenylalanine; SITE 10: note = 3-(4-Pyridyl)-L-alanine; SITE 11: note = alpha-methyl-L-serine; SITE 13: note = alpha-methyl-leucine; SITE 16: note = L-ornithine; SITE 17: note = Lysine is chemically mo) [Example 726] ?
33.3

I am curious: what cAMP Rel EC50 (1% HSA) value has been reported for YXQGTFTSDXSQXLDXKAQXAFIEXLLEGGPSSGAPPPSGS (non-natural residues; Lys acylated C18 diacid; C-terminal amide; synthetic construct; SITE 2: note = 2-Aminoisobutyric Acid; SITE 10: note = 3-(4-Pyridyl)-L-alanine; SITE 13: note = alpha-methyl-leucine; SITE 16: note = L-ornithine; SITE 17: note = Lysine is chemically modified through conjugation of the epsilon-amino group of the Lysine side chain with (2-[2-(2-) [Example 932] ?
249

Sample YXQGTFTSDXSQXLDKKAQXAFIEYLIEXGPSSGAPPPSGSE (Aib, 4Pal, Me4Pal, alpha-methyl-Leu, lipidated Lys, amide; synthetic construct; SITE 2: note = 2-Aminoisobutyric Acid; SITE 10: note = 3-(4-Pyridyl)-L-alanine; SITE 13: note = alpha-methyl-leucine; SITE 17: note = Lysine is chemically modified through conjugation of the epsilon-amino group of the Lysine side chain with D-Glutamic acid-(gamma-Glu)-D-Glutamic) [Example 927] — what was its cAMP Rel EC50 (1% HSA)?
584
